target: M1 muscarinic receptor (Rattus norvegicus, UniProt P08482); test: Displacement of 3H-QNB from rat cerebral cortex, 50 mM phosphate buffer; assay type: binding; details: KH2 cerebellum : KH1 cortex (3H-QNB)
Sequence (P08482 whole entry): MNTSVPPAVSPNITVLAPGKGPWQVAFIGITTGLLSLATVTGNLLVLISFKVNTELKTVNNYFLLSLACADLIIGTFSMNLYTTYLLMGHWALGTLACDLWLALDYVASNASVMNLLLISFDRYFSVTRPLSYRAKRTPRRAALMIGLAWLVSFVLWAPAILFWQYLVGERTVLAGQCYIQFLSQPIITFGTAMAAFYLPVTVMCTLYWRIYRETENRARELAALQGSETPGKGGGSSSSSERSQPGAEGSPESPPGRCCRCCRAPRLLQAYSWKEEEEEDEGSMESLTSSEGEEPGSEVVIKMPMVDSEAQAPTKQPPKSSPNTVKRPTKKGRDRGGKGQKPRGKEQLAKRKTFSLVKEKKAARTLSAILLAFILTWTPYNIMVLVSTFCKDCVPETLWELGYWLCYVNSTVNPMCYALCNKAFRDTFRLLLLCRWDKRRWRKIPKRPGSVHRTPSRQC
outcome-measure: RATIOS c:a

Consider the following illustrative entries.
> print(dat)
                                   molecule                         system.under.test  assay.value
1  NC1=NCC2(CN3CCC2CC3)O1 (stereo not drawn) [AF125(N)]  M1 muscarinic receptor (Rattus norvegicus, UniProt P08482)          0.4
2      O=C1CCCN1CC#CCN1CCCC1 [Oxotremorine]  M1 muscarinic receptor (Rattus norvegicus, UniProt P08482)          0.9
3             CC1=NCC2(CCN(C)CC2)O1 [AF150]  M1 muscarinic receptor (Rattus norvegicus, UniProt P08482)          3.5
4  C[N+](C)(C)CC#CCN1CCCC1=O [Oxotremorine-M, reference compound]  M1 muscarinic receptor (Rattus norvegicus, UniProt P08482)          0.6
5  c1ccc(C2=NCC3(CN4CCC3CC4)O2)cc1 (stereo not drawn) [AF125(Ph)]  M1 muscarinic receptor (Rattus norvegicus, UniProt P08482)          1.7

Now consider a different molecule.
Notebook entry, M1 muscarinic receptor (Rattus norvegicus, UniProt P08482) assay: RATIOS c:a of C[N+](C)(C)CC#CCOC(=O)Nc1cccc(Cl)c1 [McN-A-343] = ? 1.9

---

molecular target: M2 muscarinic receptors (Rattus norvegicus, UniProt P10980); construct: displacing from rat brain homogenates, cerebellum or frontal cortex; from tissue; host or cells: rat cerebellum homogenates; assay: Displacement of 3H-QNB from rat cerebellum, 50 mM phosphate buffer; assay type: binding; details: read-out: 3H-QNB-Binding KH (c)
Sequence (P10980 whole entry): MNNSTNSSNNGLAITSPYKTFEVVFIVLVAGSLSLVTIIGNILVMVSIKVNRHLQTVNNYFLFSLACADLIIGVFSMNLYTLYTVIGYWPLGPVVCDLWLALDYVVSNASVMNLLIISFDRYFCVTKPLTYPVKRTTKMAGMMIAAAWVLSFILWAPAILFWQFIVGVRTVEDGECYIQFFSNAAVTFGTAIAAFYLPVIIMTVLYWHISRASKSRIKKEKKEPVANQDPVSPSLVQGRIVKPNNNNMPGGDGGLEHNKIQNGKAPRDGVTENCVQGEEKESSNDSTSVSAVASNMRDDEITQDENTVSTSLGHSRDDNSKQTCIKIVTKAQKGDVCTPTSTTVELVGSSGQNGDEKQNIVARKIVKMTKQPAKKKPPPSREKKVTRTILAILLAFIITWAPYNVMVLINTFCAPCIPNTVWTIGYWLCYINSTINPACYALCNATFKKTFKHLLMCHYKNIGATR
outcome-measure: pKi
Keep it numeric: pKi is minus log10 of the concentration in mol/L.

Which pKi value belongs to NC1=NCC2(CN3CCC2CC3)O1 (stereo not shown) [AF125(N)] ? 5.30

---

target: M1 muscarinic receptor (Rattus norvegicus, UniProt P08482); assay: Displacement of 3H-PZ from rat cerebral cortex, 10 mM phosphate buffer; format: binding; set-up: from tissue; host or cells: rat cerebral cortex homogenates; conditions: 3H-PZ-Binding KH (a)
// pKi lookup, one value per entry
pKi is defined as minus the log10 of a concentration measured in mol/L.

> print(dat)
                                   compound  assay.value
1  C[N+](C)(C)CC#CCN1CCCC1=O [Oxotremorine-M, reference compound]         7.00

# ---- query compound ----
Any idea what pKi came out for C[N+](C)(C)CC#CCOC(=O)Nc1cccc(Cl)c1 [McN-A-343] on M1 muscarinic receptor (Rattus norvegicus, UniProt P08482)? 5.42

---

molecular target: M2 muscarinic receptors (Rattus norvegicus); construct: displacing from rat brain homogenates, cerebellum or frontal cortex; from tissue; host or cells: rat cerebellum homogenates; test: Displacement of 3H-QNB from rat cerebellum, 50 mM phosphate buffer; assay type: binding; details: cerebellum, Table 4; read-out: 3H-QNB-Binding KL (d)
outcome-measure: pKi
To interpret pKi, take it as minus log10 of a concentration measured in moles per litre.

I'd like to know its pKi. The compound in question is CC1=NCC2(CCN(C)CC2)O1 [AF150] 4.10
